testProtocol: Shake-flask logD determination (n-octanol/buffer)
experimentalConditions: n-octanol/potassium phosphate buffer, pH 7.8, LogD, pH 7.8; n-octanol/potassium phosphate buffer 100 mM
assayMetric: logD
Lab note: jot the number down without any unit.

Please supply the value of reported logD for the item N[C@@H](Cc1ccc(O)c(O)c1)C(=O)NCCNC(=O)c1ccc(Cl)cn1 [L-dopa–lazabemide prodrug] 0.319

###

testProtocol: Ionisation constant (pKa) by potentiometric titration
Format: physicochemical
experimentalConditions: amine group; titration with KOH in water
Procedure: The prodrug was titrated in 0.1 mL increments and the pH was recorded after each addition. A total of 1 mL KOH was added to fully neutralise the primary amine group of the prodrug. The results were subsequently tabulated according to the method described in literature, and the pKa value was calculated.
assayMetric: pKa

Indicate its recorded pKa; the molecule in question is N[C@@H](Cc1ccc(O)c(O)c1)C(=O)NCCNC(=O)c1ccc(Cl)cn1 [L-dopa–lazabemide prodrug] 7.25
